MEASUREMENT DESCRIPTION: FRET assay of NBD-Toc transfer from α-TTP variants to SUVs
Assay type: biochemical
RECORDED CONDITIONS: PC vesicles; 0.225 μM NBD-Toc, 2 μM α-TTP, 100 μM vesicles; room temperature
METRIC: Rate of NBD-Toc transfer to SUV, Rate (s⁻¹)
Hi! Could you send only the number? It should be in s⁻¹, unit omitted.

INSERT INTO assay_data (molecule, metric, recorded_measurement) VALUES
  ('F165A: α-TTP mutant, Phe165 to Ala (protein, UniProt P49638 1-278, looked up, variant F165A) Alpha-tocopherol transfer …: MAEARSQPSAGPQLNALPDHSPLLQPGLAALRRRAREAGVPLAPLPLTDSFLLRFLRARDFDLDLAWRLLKNYYKWRAECPEISADLHPRSIIGLLKAGYHGVLRSRDPTGSKVLIYRIAHWDPKVFTAYDVFRVSLITSELIVQEVETQRNGIKAIFDLEGWQASHAFQITPSVAKKIAAVLTDSFPLKVRGIHLINEPVIFHAVFSMIKPFLTEKIKERIHMHGNNYKQSLLQHFPDILPLEYGGEEFSMEDICQEWTNFIMKSEDYLSSISESIQ', 'Rate of NBD-Toc transfer to SUV, Rate', 0.037);

Now consider a different molecule.
Exercise: Give the measured Rate of NBD-Toc transfer to SUV, Rate for F169D: α-TTP mutant, Phe169 to Asp (helix A8) (protein, UniProt P49638 1-278, looked up, variant F169D) Alpha-tocopherol transfer …: MAEARSQPSAGPQLNALPDHSPLLQPGLAALRRRAREAGVPLAPLPLTDSFLLRFLRARDFDLDLAWRLLKNYYKWRAECPEISADLHPRSIIGLLKAGYHGVLRSRDPTGSKVLIYRIAHWDPKVFTAYDVFRVSLITSELIVQEVETQRNGIKAIFDLEGWQFSHADQITPSVAKKIAAVLTDSFPLKVRGIHLINEPVIFHAVFSMIKPFLTEKIKERIHMHGNNYKQSLLQHFPDILPLEYGGEEFSMEDICQEWTNFIMKSEDYLSSISESIQ
Key: 0.015
